meta.source: ChEMBL document CHEMBL1201862

Target: Heat shock protein HSP 90-alpha (Homo sapiens, UniProt P07900)
Format: functional, organism-based
Calls of active or inactive are those of the source.
MEASUREMENT_NAME: AC50

These recorded examples may help you get a feel for the data.
1) Cc1ccc2nc(/C(C#N)=C\c3ccc([N+](=O)[O-])o3)[nH]c2c1    < 0.195 µM (active)
2) O=C1C=CC(=O)N1CCCCCCCCCCN1C(=O)C=CC1=O    1.49 µM (active)
3) COCCOC(=O)/C(=C/c1ccc(OC(=O)c2ccccc2)cc1)C(C)=O    3.02 µM (active)

In: I am curious: what AC50 value has been reported for `Cc1cccc(N2CCN(S(=O)(=O)c3c(C)noc3/C=C/N(C)C)CC2)c1C` ?
Out: 4.74 µM (active)

In: If you can, please state the reported AC50 value of `O=C(Nc1nc(-c2ccccn2)cs1)c1ccc(-c2ccccc2F)o1` .
Out: 6.54 µM (active)

In: Consider the molecule `CC(C)OC(=O)c1ccc(NCc2cc(O)ccc2O)cc1` and give its measured AC50.
Out: 25 µM (active)

In: Dear colleague, I am looking for the recorded AC50 of the following molecule: CCC(C)(C)n1nnnc1C(c1cccnc1)N1CCC(Cc2ccccc2)CC1 (configuration not stated)
Out: 1.09 µM (active)

* * *

We begin with a simple list: items and their reported EC50.
Target: UniProt:P10520
Sequence (P10520 whole entry): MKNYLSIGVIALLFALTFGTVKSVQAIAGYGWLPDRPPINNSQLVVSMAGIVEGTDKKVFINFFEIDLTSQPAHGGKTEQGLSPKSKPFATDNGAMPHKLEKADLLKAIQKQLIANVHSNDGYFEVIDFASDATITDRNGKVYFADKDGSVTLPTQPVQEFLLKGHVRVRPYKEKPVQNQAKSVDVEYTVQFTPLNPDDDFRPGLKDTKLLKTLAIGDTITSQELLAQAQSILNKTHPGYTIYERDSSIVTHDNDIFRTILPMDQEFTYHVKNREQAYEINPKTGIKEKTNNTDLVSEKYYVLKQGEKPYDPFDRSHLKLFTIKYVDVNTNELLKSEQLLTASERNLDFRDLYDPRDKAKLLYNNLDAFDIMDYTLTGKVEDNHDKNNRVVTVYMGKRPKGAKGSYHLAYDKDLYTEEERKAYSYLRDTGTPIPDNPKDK
Assay: viability-normalized secreted streptokinase activity reduction – plasminogen activation absorbance, OD405, dose response (AID 1914);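 further: secreted streptokinase activity via plasminogen activation per viability signal from cell pellet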
Assay type: functional, Streptococcus pyogenes M1 GAS
Active and inactive are the calls of the source.

Consider the reported EC50 for these molecules:
1. Nc1nc(-c2ccccn2)nc(N)c1Cc1ccccc1F    > 150 µM (not active)
2. NS(=O)(=O)c1ccc(N2N=C(c3ccc(Br)cc3)CC2c2ccc(F)cc2)cc1 (centres undefined)    > 150 µM (not active)
3. CCN1CCN(Cc2ccc(NC(=O)c3cc(NC(=O)c4cc(-c5ccc(OC)cc5)n[nH]4)cc(OC)c3)cc2C(F)(F)F)CC1    > 150 µM (not active)
4. O=C1N=C(Nc2ccc(Cl)cc2)SC1Cc1cccc(Cl)c1Cl (centres undefined)    131 µM (active)
5. CCOC(=O)c1cnc(-n2nc(C)cc2C)nc1Nc1ccc(OC)cc1    > 150 µM (not active)

In: Item `O=C(N/N=C/c1cc(Cl)cc([N+](=O)[O-])c1O)C(O)(c1ccccc1)c1ccccc1` with UniProt:P10520 - EC50?
Out: > 150 µM (not active)

In: Identify the measured EC50 of CCC(C)N1C(=O)/C(=C/NNc2ccccc2)C(=O)NC1=S (centres undefined) for UniProt:P10520.
Out: > 150 µM (not active)

* * *

In this section, each of the molecules is paired with its reported AC50.
Biological target: Cytochrome P450 3A4 (Homo sapiens, UniProt P08684);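 further: CYP3A4 tested as one member of a cytochrome P450 panel screen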
Sequence (P08684 whole entry): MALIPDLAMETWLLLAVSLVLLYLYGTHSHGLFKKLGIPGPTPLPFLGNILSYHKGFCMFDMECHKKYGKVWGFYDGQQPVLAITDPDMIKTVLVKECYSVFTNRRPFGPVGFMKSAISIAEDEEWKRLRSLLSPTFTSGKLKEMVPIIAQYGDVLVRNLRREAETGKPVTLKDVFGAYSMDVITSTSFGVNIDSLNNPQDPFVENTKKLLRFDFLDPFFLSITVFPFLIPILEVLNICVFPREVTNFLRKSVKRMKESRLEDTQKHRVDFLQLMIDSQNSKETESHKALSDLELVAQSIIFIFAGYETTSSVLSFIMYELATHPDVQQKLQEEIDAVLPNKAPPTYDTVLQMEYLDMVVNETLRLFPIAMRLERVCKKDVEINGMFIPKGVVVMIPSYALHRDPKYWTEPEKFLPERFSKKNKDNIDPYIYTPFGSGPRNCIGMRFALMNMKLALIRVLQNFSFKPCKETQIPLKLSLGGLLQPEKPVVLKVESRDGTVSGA

1. CCCn1c(=O)c2c(ncn2C)n(CCC)c1=O    20 µM (inconclusive)
2. C=CCNC(=O)c1ccc(-c2nc(-c3ccc(Cl)c(Cl)c3)cs2)cc1    7.94 µM (inconclusive)

In: Fill in the blank: the reported AC50 of `Cc1nc2cnc(N3CCNCC3)nc2n(C)c1=O` is ____.
Out: 15.8 µM (inconclusive)

In: Entry `O=C(c1ccc2ncsc2c1)N1CCN(c2ccc(O)cc2)CC1` : reported AC50 = ?
Out: 3.55 µM (inconclusive)

* * *

Target: fMet-Leu-Phe receptor (Homo sapiens)
Sequence (P21462 whole entry): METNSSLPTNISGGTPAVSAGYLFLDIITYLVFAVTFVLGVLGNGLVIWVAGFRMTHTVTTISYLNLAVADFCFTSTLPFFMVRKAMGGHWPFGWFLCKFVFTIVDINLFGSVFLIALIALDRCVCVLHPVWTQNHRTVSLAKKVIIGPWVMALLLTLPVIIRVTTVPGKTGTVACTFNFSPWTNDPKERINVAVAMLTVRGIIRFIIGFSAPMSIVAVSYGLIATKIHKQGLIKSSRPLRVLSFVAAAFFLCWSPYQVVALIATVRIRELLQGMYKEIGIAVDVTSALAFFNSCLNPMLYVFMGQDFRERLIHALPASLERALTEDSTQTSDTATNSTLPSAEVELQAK
Test: formyl peptide receptor binders – dose response (AID 519)
Type: functional
The source made the active and inactive calls.
Measured Ki values are reported for all entries that follow.

Worked cases, answers included:
1. Cc1ccc(C2C(C(=O)c3ccc(Br)cc3)=C(O)C(=O)N2Cc2ccco2)o1 (centres undefined)    > 66.7 µM (inactive)
2. CC(C)OC(=O)c1cc(NC(=O)C2C3CCC(O3)C2C(=O)O)cc(C(=O)OC(C)C)c1 (centres undefined)    41.5 µM (inactive)
3. Cc1nn2c(O)c3c(nc2c1-c1cccc2ccccc12)CCC3    53.7 µM (inactive)

Proceeding to the next compound to report its Ki.
In: Tell me the measured Ki of `Clc1ccc(Cc2nn3c(-c4ccncc4)nnc3s2)cc1` , please.
Out: > 66.7 µM (inactive)

* * *

Target: Cytochrome P450 2C19 (Homo sapiens)
Sequence (P33261 whole entry): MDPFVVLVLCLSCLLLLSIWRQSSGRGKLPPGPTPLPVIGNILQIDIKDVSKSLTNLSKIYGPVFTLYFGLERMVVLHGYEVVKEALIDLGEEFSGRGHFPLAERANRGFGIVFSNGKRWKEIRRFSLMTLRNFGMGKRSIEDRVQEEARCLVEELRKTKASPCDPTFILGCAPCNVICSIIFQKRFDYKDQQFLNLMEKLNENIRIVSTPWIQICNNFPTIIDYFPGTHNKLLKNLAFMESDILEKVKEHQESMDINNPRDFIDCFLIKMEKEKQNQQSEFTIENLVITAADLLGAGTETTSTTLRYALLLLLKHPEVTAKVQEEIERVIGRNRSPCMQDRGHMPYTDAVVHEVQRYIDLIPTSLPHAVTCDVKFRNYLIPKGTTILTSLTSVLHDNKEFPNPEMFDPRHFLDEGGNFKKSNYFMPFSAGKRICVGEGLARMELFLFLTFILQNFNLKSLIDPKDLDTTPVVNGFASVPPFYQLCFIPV
Assay: Cytochrome panel assay with activity outcomes. Panel member name: p450-cyp2c19 Compounds with AC50 equal or less than 10 uM are considered active
Format: functional
MEASUREMENT_NAME: AC50

Examples with answers:
1) Cc1nc2cnc(N3CCNCC3)nc2n(Cc2ccc(F)cc2)c1=O    inconclusive
2) N#Cc1ccc(CN2CCCC3(CCN(C(=O)c4ccncc4)CC3)C2)cc1    inconclusive
3) Cc1ccc(S(=O)(=O)N[C@H](CN)C(=O)O)cc1    inconclusive
4) CC(C)(Oc1ccc(-c2cccc3ccccc23)cc1)C(=O)O    inconclusive
5) CCCCn1nc(-c2ccccc2)c2nc3ccccc3nc21    inconclusive

In: Enter reported AC50 observed with Cytochrome P450 2C19 (Homo sapiens) for `COc1cccc(/N=c2\oc3c(C)ncc(CO)c3cc2C(N)=O)c1`
Out: inconclusive

In: API: value(readout= AC50, system= Cytochrome P450 2C19 (Homo sapiens), query= `Cc1nc2cnc(N3CCNCC3)nc2n(C)c1=O` )
Out: inconclusive

In: Short answer please: AC50, Cytochrome P450 2C19 (Homo sapiens), entry CCCCN1C(=O)CCC(C(=O)O)C1c1ccccc1 (stereo not given)
Out: inconclusive

In: Find the measured AC50: item `CC(=O)OC[C@@H]1O[C@H](C/C=N\OCC[C@H]2C=C[C@H](OC(C)=O)[C@@H](COC(C)=O)O2)C=C[C@@H]1OC(C)=O` , target or system Cytochrome P450 2C19 (Homo sapiens).
Out: inconclusive

* * *

# AC50 measurements, system: Cytochrome P450 2C9 (Homo sapiens, UniProt P11712)
# Sequence (P11712 whole entry): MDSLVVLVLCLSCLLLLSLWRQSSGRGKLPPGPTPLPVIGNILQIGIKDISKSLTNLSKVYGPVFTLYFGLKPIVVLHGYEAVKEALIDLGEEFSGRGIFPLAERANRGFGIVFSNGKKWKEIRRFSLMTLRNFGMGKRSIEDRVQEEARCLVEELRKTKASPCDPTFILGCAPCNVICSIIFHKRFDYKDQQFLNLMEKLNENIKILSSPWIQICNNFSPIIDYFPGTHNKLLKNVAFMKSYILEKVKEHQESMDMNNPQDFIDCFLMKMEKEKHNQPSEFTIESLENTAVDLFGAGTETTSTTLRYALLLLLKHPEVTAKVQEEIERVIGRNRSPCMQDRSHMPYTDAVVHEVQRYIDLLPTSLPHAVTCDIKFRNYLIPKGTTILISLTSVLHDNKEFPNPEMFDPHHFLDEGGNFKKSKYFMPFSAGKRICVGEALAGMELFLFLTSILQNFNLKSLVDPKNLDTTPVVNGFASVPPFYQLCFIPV

1) COc1cccc(/N=c2\oc3c(C)ncc(CO)c3cc2C(N)=O)c1    11.2 µM (inconclusive)
2) CCCS(=O)(=O)N1CCCC(C(=O)NCCN2CCC(Cc3ccccc3)CC2)C1 (stereo unspecified)    5.01 µM (inconclusive)
3) O=C(Nc1ccc(S(=O)(=O)N2CCCC2)cc1)c1ccc(CN2CCOCC2)cc1    10 µM (inconclusive)

Attention now turns to another entry.
In: Reported AC50 for Cytochrome P450 2C9 (Homo sapiens, UniProt P11712), given `CCOc1ccc(N2C(=O)c3cccnc3C2=O)cc1` ?
Out: 7.94 µM (inconclusive)

* * *

Assay: alpha-synuclein stem-loop luciferase translation blockers – H4 neuroglioma cells, luminescence, confirmation (AID 1988)
Assay type: functional, cell-based
Activity calls are given as the source filed them.
Reported values of EC50 for individual entries

These recorded examples may help you get a feel for the data.
1) N#Cc1nc(Cc2cccc3ccccc23)oc1N1CCCCC1    > 120 µM (not active)
2) Nc1nc(NCc2ccco2)nc(Nc2ccc(F)cc2)c1[N+](=O)[O-]    > 120 µM (not active)
3) CCc1nnc(NC(=O)c2ccc(S(=O)(=O)N(C)Cc3ccccc3)cc2)o1    > 120 µM (not active)
4) COC(=O)Nc1nc(-c2ccccc2)c(C(=O)c2ccc(Cl)cc2)s1    0.179 µM (active)
5) CC1CCc2cccc3c2N1c1cc(C#N)c(C#N)cc1O3 (stereo not drawn)    33.4 µM (active)
6) Cn1ccnc1SCc1cn2cc(Br)ccc2n1    7.22 µM (inconclusive)
7) CCOC(=O)c1sc2nc(CC(=O)OC)nc(N3CCN(c4ccc(OC)cc4)CC3)c2c1C    89.9 µM (active)

In: State the recorded EC50 for this entry: CCN(C(=O)COC(=O)c1cc(-c2ccc3cc(OC)ccc3c2)nc2ccccc12)C1CCS(=O)(=O)C1 (stereo not drawn)
Out: 11 µM (active)

* * *

Target: Protein skinhead-1 (Caenorhabditis elegans)
Sequence (P34707 whole entry): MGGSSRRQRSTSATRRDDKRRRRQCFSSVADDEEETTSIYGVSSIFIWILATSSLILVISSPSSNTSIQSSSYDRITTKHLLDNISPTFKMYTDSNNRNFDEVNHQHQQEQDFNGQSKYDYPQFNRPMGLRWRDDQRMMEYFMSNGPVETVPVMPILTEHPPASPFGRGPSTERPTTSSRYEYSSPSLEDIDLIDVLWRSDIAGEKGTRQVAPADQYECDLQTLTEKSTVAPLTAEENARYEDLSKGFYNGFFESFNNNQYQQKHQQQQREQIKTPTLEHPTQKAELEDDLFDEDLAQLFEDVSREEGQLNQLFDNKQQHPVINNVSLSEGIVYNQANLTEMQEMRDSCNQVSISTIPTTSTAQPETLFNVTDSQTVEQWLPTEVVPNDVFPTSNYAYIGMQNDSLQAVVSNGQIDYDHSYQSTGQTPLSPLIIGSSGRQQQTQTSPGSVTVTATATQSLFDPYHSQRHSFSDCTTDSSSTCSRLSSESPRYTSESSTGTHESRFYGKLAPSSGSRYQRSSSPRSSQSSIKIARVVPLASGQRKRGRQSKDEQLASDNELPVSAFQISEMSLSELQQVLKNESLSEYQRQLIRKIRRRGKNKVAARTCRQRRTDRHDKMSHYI
Format: functional
Calls of active or inactive are those of the source.
Bench note: report the call from active, inactive

Reference set (5 entries):
1. O=C(Nc1ccccc1)c1c[nH]cn1    inactive
2. Fc1ccc(Cn2nnc(-c3ccc(CN4CCOCC4)cc3)n2)cc1    active
3. Fc1ccccc1N=C(S)NN(Cc1ccccc1)c1ccccc1    inactive
4. COc1cc(CNC(C)c2ccccc2)cc(Br)c1OCc1ccc(F)cc1 (stereo unspecified)    active
5. COc1ccc2c(c1)OC/C(=C/c1cccs1)C2=O    active

Pending compound:
In: Test call for this compound, please: `CN1/C(=C\C(=O)CSc2nnc(NCc3ccccc3)s2)C(C)(C)c2ccccc21`
Out: inactive
